STUDY TARGET: AKT1 (human)
STUDY CONDITIONS: compound 10.0 µM
QUANTITY KIND: inhibition (%)
Report only the number, with the unit % understood.

What inhibition value was documented for this compound, NC(=O)c1sc(-c2ccsc2)cc1N ?
0

What inhibition value was documented for this compound, c1ccc(-c2n[nH]cc2-c2ccnc3ccccc23)nc1 ?
0

What inhibition value was documented for this compound, O=C1NC(=O)c2c1c1c3ccccc3n3c1c1c2c2ccccc2n1C1CCC3O1 ?
78

What inhibition value was documented for this compound, N#C/C(=C\c1ccc(O)c(O)c1)C(=O)NCc1ccccc1 ?
0

What inhibition value was documented for this compound, Cc1ccc(-c2nn(C(C)(C)C)c3ncnc(N)c23)cc1 ?
2

What inhibition value was documented for this compound, CN(C)CCCn1cc(C2=C(c3c[nH]c4ccccc34)C(=O)NC2=O)c2ccccc21 ?
5

What inhibition value was documented for this compound, O=c1cc(N2CCOCC2)nc2c3ccccc3ccn12 ?
0

What inhibition value was documented for this compound, Cc1cc(F)c(Nc2ncnc3cc(OCc4ccccc4)ccc23)cc1O ?
0

What inhibition value was documented for this compound, COc1cc2nccc(Oc3ccc(NC(=O)Nc4ccc(F)cc4F)c(F)c3)c2cc1OC ?
6

What inhibition value was documented for this compound, CS(=O)(=O)CCNCc1nc(-c2ccc3ncnc(Nc4ccc(OCc5cccc(F)c5)c(Cl)c4)c3c2)cs1 ?
16

What inhibition value was documented for this compound, O=C1NC(=O)C(c2ccccc2[N+](=O)[O-])=C1Nc1ccc(O)c(Cl)c1 ?
0

What inhibition value was documented for this compound, CC1=C(O)C(=O)[C@@H]2OC2C1=O (stereo partly drawn) ?
0

What inhibition value was documented for this compound, O=C1Nc2ccc(I)cc2/C1=C/c1cc(Br)c(O)c(Br)c1 ?
19

What inhibition value was documented for this compound, COc1cc2ncnc(Nc3ccc(F)c(Cl)c3)c2cc1OCCCN1CCOCC1 ?
0

What inhibition value was documented for this compound, Cc1[nH]c(/C=C2\C(=O)Nc3ccc(S(=O)(=O)Cc4c(Cl)cccc4Cl)cc32)c(C)c1C(=O)N1CCC[C@@H]1CN1CCCC1 ?
8

What inhibition value was documented for this compound, O=c1[nH]nc(Sc2ncc([N+](=O)[O-])s2)n1-c1ccc2c(c1)OCCO2 ?
0

What inhibition value was documented for this compound, CC(C)[C@H](CO)Nc1nc(Nc2ccc(C(=O)O)c(Cl)c2)c2ncn(C(C)C)c2n1 ?
0

What inhibition value was documented for this compound, N#CC(=C(\N)Sc1ccccc1N)/C(C#N)=C(/N)Sc1ccccc1N ?
0

What inhibition value was documented for this compound, COc1ccc(C(=O)Nc2sc3c(c2C(N)=O)CCCC3)cc1OC ?
0

What inhibition value was documented for this compound, Nc1ccc(-c2cccc3c(=O)cc(N4CCOCC4)oc23)cc1 ?
2

What inhibition value was documented for this compound, CC(C)N(CCC(=O)c1ccc2ccccc2c1)Cc1ccccc1 ?
0

What inhibition value was documented for this compound, Cc1ccccc1C(=O)c1ccc(Nc2ccc(Br)cc2N)cc1Cl ?
0

What inhibition value was documented for this compound, O=C1NC(=O)c2cc(Nc3ccc(F)cc3)c(Nc3ccc(F)cc3)cc21 ?
15

What inhibition value was documented for this compound, NC1N[N](=Cc2coc3ccccc3c2=O)->[Cu]([Cl])([Cl])[SH]=1 ?
27

What inhibition value was documented for this compound, O=S(=O)(c1cccc2cnccc12)N1CCCNCC1 ?
0

What inhibition value was documented for this compound, O=C(c1ccc(Nc2nccc(-c3cc4ccccc4s3)n2)cc1)N1CCC(N2CCCC2)CC1 ?
0

What inhibition value was documented for this compound, O=C1Nc2cc(Br)ccc2/C1=C1/Nc2ccccc2/C1=N\O ?
0

What inhibition value was documented for this compound, COc1ccc(Cl)cc1NC(=O)Nc1cc(C)nc2ccccc12 ?
0

What inhibition value was documented for this compound, CO[C@@H]1[C@H](N(C)C(=O)c2ccccc2)C[C@H]2O[C@]1(C)n1c3ccccc3c3c4c(c5c6ccccc6n2c5c31)C(=O)NC4 ?
55

What inhibition value was documented for this compound, O=C1NC(=O)c2c1c1c3ccccc3[nH]c1c1[nH]c3ccccc3c21 ?
22

What inhibition value was documented for this compound, Oc1ccc(-c2nc(-c3ccc(F)cc3)c(-c3ccncc3)[nH]2)cc1 ?
5

What inhibition value was documented for this compound, COc1cc2ncnc(Nc3ccc(Cl)cc3F)c2cc1OC ?
0

What inhibition value was documented for this compound, O=S(=O)(c1cccc2c(O)nccc12)N1CCCNCC1 ?
0

What inhibition value was documented for this compound, CN(C)c1ccc(/C=C2\C(=O)Nc3ccccc32)cc1 ?
0

What inhibition value was documented for this compound, C=CC(=O)c1ccc2ccccc2c1 ?
0

What inhibition value was documented for this compound, CS(=O)c1ccc(-c2nc(-c3ccc(F)cc3)c(-c3ccncc3)[nH]2)cc1 (stereo not drawn) ?
11

What inhibition value was documented for this compound, COc1nccc(-c2c(-c3ccc(F)cc3)ncn2[C@H]2CC[C@H](O)CC2)n1 ?
0

What inhibition value was documented for this compound, COc1cc(CC2C(=O)OC[C@@H]2Cc2ccc(OC)c(OC)c2)ccc1O (stereo partly drawn) ?
0

What inhibition value was documented for this compound, CC(C)[C@H](CO)Nc1nc(Nc2cccc(Cl)c2)c2ncn(C(C)C)c2n1 ?
0

What inhibition value was documented for this compound, CN1CCC(Nc2ncc3ncnc(Nc4ccc(F)c(Cl)c4)c3n2)CC1 ?
0

What inhibition value was documented for this compound, Fc1ccc(Cl)cc1-c1nc(Nc2ccncc2)c2nccnc2n1 ?
39

What inhibition value was documented for this compound, O=C1c2ccccc2-c2n[nH]c3cccc1c23 ?
0

What inhibition value was documented for this compound, CN1CC[C@H](c2c(O)cc(O)c3c(=O)cc(-c4ccccc4Cl)oc23)[C@H](O)C1 ?
1

The origin of these recorded values is the kinase profiling compilation of Christmann-Franck et al. (2016).
